Tested on: Synechocystis sp. strain 6803
Experiment: Growth inhibition of Synechocystis by hydrazones and isolated metal-hydrazone complexes, BG-11 Cu minus medium (Example 12)
Format: cell-based
Settings: Test Concn. 0.05 μg/ml
MEASURE_NAME: Complex % Inhn. (%)
Reply numerically in %, unit not repeated.

Here is how some compounds turned out for Complex % Inhn..
O=C(NN=Cc1cc(Cl)cc(Cl)c1O)c1ccccc1.O=C(NN=Cc1cc(Cl)cc(Cl)c1O)c1ccccc1.[Cl-].[Cl-].[Zn+2] [Compound 78] | 59
CC(=O)[O-].CC(=O)[O-].O=C(N/N=C/c1cc(Cl)cc(Cl)c1O)c1ccccc1.[Cu+2] [Compound 72] | 98
O=C(N/N=C/c1cc(Cl)cc(Cl)c1O)c1ccccc1.O=C(N/N=C/c1cc(Cl)cc(Cl)c1O)c1ccccc1.O=S(=O)([O-])[O-].[Cu+2] [Compound 74] | 95

If you can, please state the reported Complex % Inhn. value of O=C(N/N=C/c1cc(Cl)cc(Cl)c1O)c1ccccc1.[Cl-].[Cl-].[Cu+2] [Compound 75] .
97

And then CC(=O)[O-].CC(=O)[O-].O=C(N/N=C/c1cc(Cl)cc(Cl)c1O)c1ccccc1.O=C(N/N=C/c1cc(Cl)cc(Cl)c1O)c1ccccc1.[Cu+2] [Compound 73] , what is it?
97

And then O=C(N/N=C/c1cc(Cl)cc(Cl)c1O)c1ccccc1.O=C(N/N=C/c1cc(Cl)cc(Cl)c1O)c1ccccc1.[Cl-].[Cl-].[Cu+2] [Compound 76] , what is it?
96

###

Quick list: % Inhn. Plus Copper Observed per entry.
Tested on: C. reinhardtii CC-1928
Test: Effect of copper on activity of hydrazones: in vitro growth inhibition of C. reinhardtii in TAP Cu minus / TAP Cu plus medium (Example 10)
Type: cell-based, Chlamydomonas reinhardtii
Conditions: test compound 1 μg/mL; TAP Cu plus medium (CuCl2); 48 h
Reply numerically in %, unit not repeated.

If you can, please state the reported % Inhn. Plus Copper Observed value of O=C(N/N=C/c1cc(Cl)cc(Br)c1O)c1ccccc1 .
97

And then O=C(N/N=C/c1cc(Br)cc(Br)c1O)c1ccccc1 , what is it?
96

And then Cc1ccc(C(=O)N/N=C/c2cccc(Cl)c2O)c(O)c1 , what is it?
97

And then O=C(N/N=C/c1cc(C(F)(F)F)cc(Cl)c1O)c1ccccc1 , what is it?
90

And then O=C(N/N=C/c1cccc(Cl)c1O)c1ccccc1O , what is it?
75

And then O=C(N/N=C/c1cc(Cl)cc(C(F)(F)F)c1O)c1ccccc1O , what is it?
92

And then O=C(N/N=C/c1c(C(F)(F)F)ccc(Cl)c1O)c1ccc(Cl)cc1 , what is it?
97

And then O=C(N/N=C/c1cc(Cl)cc(Br)c1O)c1ccccc1O , what is it?
95

###

Quick list: melting point per entry.

Here is how some compounds turned out for melting point.
C/C(=N\NC(=O)c1ccc(Cl)cc1)c1cc(Cl)cc(Cl)c1O | 260 to 262 °C
O=C(N/N=C/c1cc(Cl)cc(C(F)(F)F)c1O)c1ccc(Cl)cc1 | 232 to 234 °C
O=C(N/N=C/c1cc(Cl)cc(Cl)c1O)c1ccc2ccccc2c1 | 215 to 217 °C
O=C(N/N=C/c1c(Cl)ccc(Cl)c1O)c1ccc(Cl)cc1 | 271 to 273 °C
C/C(=N\NC(=O)c1c(C)cccc1O)c1cc(Cl)cc(Cl)c1O | 245 °C
Cc1cccc(C(=O)N/N=C/c2cccc(Cl)c2O)c1 | 166 to 169 °C

If you can, please state the reported melting point value of O=C(N/N=C/c1cc(C(F)(F)F)cc(Cl)c1O)c1ccccc1 .
216 to 222 °C

And then O=C(N/N=C/c1cccc(Cl)c1O)c1ccccc1O , what is it?
266 to 268 °C

And then C/C(=N\NC(=O)c1ccccc1Br)c1cc(Cl)cc(Cl)c1O , what is it?
220 to 222 °C

And then O=C(N/N=C/c1cc(C(F)(F)F)cc(Cl)c1O)c1ccc(F)cc1 , what is it?
200 to 202 °C

And then O=C(N/N=C/c1ccc(Cl)c(Cl)c1O)c1cccc(Cl)c1 , what is it?
219 to 222 °C

And then C/C(=N\NC(=O)c1ccccc1)c1cc(Br)cc(Br)c1O , what is it?
242 to 245 °C

And then C/C(=N\NC(=O)c1ccc(Cl)cc1)c1cccc([N+](=O)[O-])c1O , what is it?
241 to 251 °C

And then O=C(N/N=C/c1cccc(Cl)c1O)c1ccc(Cl)cc1 , what is it?
257 to 260 °C

And then O=C(N/N=C/c1cc(Cl)cc(C(F)(F)F)c1O)c1cccc(Cl)c1 , what is it?
228 to 229 °C

And then C/C(=N\NC(=O)c1cccc(Cl)c1)c1cc(Cl)cc(Cl)c1O , what is it?
245 to 246 °C

And then O=C(N/N=C/c1cc(C(F)(F)F)ccc1O)c1ccccc1O , what is it?
277 to 281 °C

And then O=C(N/N=C/c1cc(C(F)(F)F)cc(Cl)c1O)c1cccc(F)c1 , what is it?
210 to 212 °C

And then O=C(N/N=C/c1ccc(Cl)c(Cl)c1O)c1cccc(F)c1 , what is it?
215 to 218 °C

And then O=C(N/N=C/c1cccc(C(F)(F)F)c1O)c1ccccc1O , what is it?
230 to 234 °C

And then O=C(N/N=C/c1cccc(Cl)c1O)c1ccc([N+](=O)[O-])cc1 , what is it?
284 to 287 °C

And then C/C(=N\NC(=O)c1ccccc1)c1ccccc1O , what is it?
185 to 187 °C

And then O=C(N/N=C/c1c(O)cccc1Cl)c1cccc(F)c1 , what is it?
257 to 259 °C

And then C/C(=N\NC(=O)c1ccc(Br)cc1)c1cccc([N+](=O)[O-])c1O , what is it?
244 to 252 °C

And then O=C(N/N=C/c1c(O)cccc1Cl)c1ccc(Cl)cc1 , what is it?
273 to 277 °C

And then Cc1ccc(C(=O)N/N=C/c2cc(C(F)(F)F)cc(Cl)c2O)c(O)c1 , what is it?
255 to 257 °C

And then Cc1ccc(C(=O)N/N=C/c2ccc(Cl)c(Cl)c2O)c(O)c1 , what is it?
271 to 278 °C

And then O=C(N/N=C/c1cccc(C(F)(F)F)c1O)c1cccc(F)c1 , what is it?
176 to 180 °C
